- assaySystem: Rac-1 (Homo sapiens (Human))
- measurementDescription: Rac inhibition assay (labeled GTP)
- Assay type: binding
- particulars: read-out: Rac-1 % Inh.
Consider the following compounds; for each one, report its inhibition at 20 µM.

Which inhibition at 20 µM reading was recorded for the compound COc1cc(C)c(-c2csc3c(O)nc(-c4ccccn4)nc23)cc1C [drawing 3741] ?
51 to 75%

Try this compound next: O=C(c1csc2c(O)nc(-c3ccccn3)nc12)N1CCN(Cc2ccccc2)CC1 [drawing 3651]
51 to 75%

Try this compound next: CC(C)(C)c1sc2c(O)nc(-c3ccccn3)nc2c1Br [drawing 3872]
25 to 50%

Try this compound next: COc1c(O)nc(-c2ccccn2)nc1Oc1cccc(C(F)(F)F)c1 [drawing 3875]
51 to 75%

Try this compound next: Cc1c(Br)sc2c(O)nc(-c3ccccn3)nc12 [drawing 3793]
51 to 75%

Try this compound next: Oc1nc(-c2ccccn2)nc2c(-c3ccc4c(c3)OCO4)csc12 [drawing 3751]
76 to 100%

Try this compound next: CCOCCNc1nc(-c2nccn2C)nc2sc(-c3ccccc3)c(-c3ccccc3)c12 [drawing 3893]
51 to 75%

Try this compound next: Oc1nc(-c2ccccn2)nc2c(-c3cncnc3)csc12 [drawing 3823]
1 to 25%

Try this compound next: COCCCCNC(=O)c1csc2nc(-c3ccccn3)nc(N3CCS(=O)(=O)CC3)c12 [drawing 3698]
1 to 25%

====

- assaySystem: KRas G12D/Q61H double mutant (Homo sapiens (Human), UniProt P01116, G12D/Q61H)
- Sequence (P01116-2 other isoform, or with tags, fused parts or gaps G12D/Q61H): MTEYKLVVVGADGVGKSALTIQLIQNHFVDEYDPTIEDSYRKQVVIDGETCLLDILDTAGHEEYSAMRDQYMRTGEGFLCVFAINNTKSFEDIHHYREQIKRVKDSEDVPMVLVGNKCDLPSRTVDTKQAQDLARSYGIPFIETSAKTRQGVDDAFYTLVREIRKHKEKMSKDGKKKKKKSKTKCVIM
- measurementDescription: Ras GTP binding domain inhibition assay (labeled GTP)
- particulars: 20 μM compound; KRas G12D/Q61H double mutant; read-out: % Inhibition at 20 μM of K-Ras mutant and wild-type protein, KRas G12D Q61H
readoutType: inhibition at 20 µM

Which inhibition at 20 µM reading was recorded for the molecule Oc1nc(-c2ccccn2)nc2cc(-c3ccccc3Cl)sc12 [drawing 3556] ?
1 to 25%

Try this molecule next: COc1nc(-c2ccccn2)nc(Oc2cccc(C(F)(F)F)c2)c1OC [drawing 3552]
1 to 25%

Try this molecule next: Oc1nc(-c2ccccn2)nc2c(-c3cc(C(F)(F)F)ccc3F)csc12 [drawing 3465]
1 to 25%

Try this molecule next: Cc1c(C(=O)O)sc2c(O)nc(-c3ccccn3)nc12 [drawing 3475]
51 to 75%

Try this molecule next: Oc1nc(-c2ccccn2)nc2c(-c3cncc(C(F)(F)F)c3)csc12 [drawing 3466]
1 to 25%

Try this molecule next: `COC(=O)c1sccc1S(=O)(=O)NCCCCCc1nc(-c2ccc(C)cc2)no1`
25 to 50%

Try this molecule next: `CCOC(=O)c1c(NC(C)=O)sc(Cc2ccc3c(c2)OCO3)c1C`
25 to 50%

Try this molecule next: Cc1sc2c(O)nc(-c3ccccn3)nc2c1C(=O)N1CCN(Cc2cccc(O)c2)CC1 [drawing 3510]
51 to 75%

Try this molecule next: Cc1ccc(OC(C)C(=O)Nc2ccccc2S(=O)(=O)NC(C)(C)C)c(Br)c1 (stereo not drawn)
1 to 25%

====

- assaySystem: KRas G12D/Q61H double mutant (Homo sapiens (Human), UniProt P01116, G12D/Q61H)
- measurementDescription: Ras GTP binding domain inhibition assay (labeled GTP)
- particulars: 20 μM compound; KRas G12D/Q61H double mutant; read-out: % Inhibition at 20 μM of K-Ras mutant and wild-type protein, KRas G12D Q61H
readoutType: inhibition at 20 µM

Tell me reported inhibition at 20 µM for `Cc1ccc(OCCn2c(CN3CCCCC3)nc3ccccc32)cc1C` , tested with KRas G12D/Q61H double mutant (Homo sapiens (Human), UniProt P01116, G12D/Q61H).
25 to 50%

Try this compound next: `Cc1ccc(OS(=O)(=O)NCCC(c2ccccc2)c2ccccc2)cc1`
1 to 25%

Try this compound next: `COc1ccc(CCNC(=O)COC(=O)c2c(NC(=O)C(C)(C)C)sc(C)c2C)cc1`
25 to 50%

Try this compound next: `CN(Cc1nnc(-c2ccc(F)cc2)o1)CC12CC3CC(CC(C3)C1)C2`
25 to 50%

Try this compound next: `O=S(=O)(Cc1ccc(OC(F)(F)F)cc1)Nc1cccnc1-n1cccn1`
25 to 50%

Try this compound next: `COc1ccc(Cl)cc1CN(c1ccccc1F)S(=O)(=O)C(C)C`
25 to 50%

Try this compound next: `FC(F)n1ccnc1CCNCc1csc(COc2ccccc2)n1`
51 to 75%

Try this compound next: Cc1ccc(C(=O)Oc2cccc(C3CN(C(=O)c4ccc(C)s4)CCO3)c2)s1 (stereo not shown)
1 to 25%

Try this compound next: Cn1ccnc1C(NCCOc1ccc2cc(Br)ccc2c1)C1CC1 (stereo not shown)
1 to 25%

Try this compound next: COc1nc(-c2cn(C)cn2)nc2sc(-c3ccncc3)c(-c3ccccc3)c12 [drawing 3531]
25 to 50%

====

- assaySystem: KRas G12C mutant (Homo sapiens (Human), UniProt P01116, G12C)
- Sequence (P01116-2 other isoform, or with tags, fused parts or gaps G12C): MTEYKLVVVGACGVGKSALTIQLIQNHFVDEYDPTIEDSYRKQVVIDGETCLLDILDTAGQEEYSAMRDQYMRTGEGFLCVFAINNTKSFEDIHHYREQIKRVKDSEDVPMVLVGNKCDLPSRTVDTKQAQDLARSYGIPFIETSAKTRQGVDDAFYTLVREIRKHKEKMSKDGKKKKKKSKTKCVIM
- measurementDescription: Ras GTP binding domain inhibition assay (labeled GTP)
- particulars: 20 μM compound; read-out: % Inhibition at 20 μM KRas G12C
readoutType: inhibition at 20 µM

Which inhibition at 20 µM reading was recorded for the molecule O=C(c1csc2c(O)nc(-c3ccccn3)nc12)N1CCC(c2cccc(O)c2)C1 (stereo not drawn) [drawing 2840] ?
51 to 75%

Try this molecule next: CN1CCN(c2nc(-c3ccccn3)nc3scc(C(=O)NCCc4cnc(O)nc4)c23)CC1 [drawing 2899]
1 to 25%

Try this molecule next: Oc1nc(-c2ccccn2)nc2c(-c3ccc4c(c3)OCO4)csc12 [drawing 2879]
25 to 50%

Try this molecule next: O=C(COCc1ccnc(O)c1)Nc1nc(-c2ccccn2)nc2sccc12 [drawing 2857]
25 to 50%

Try this molecule next: O=C(CCc1cncnc1)Nc1nc(-c2ccccn2)nc2sccc12 [drawing 2891]
25 to 50%

Try this molecule next: Oc1nc(-c2ccccn2)nc2c(-c3cccc4c3OCO4)csc12 [drawing 2849]
25 to 50%

Try this molecule next: O=C(OCCc1ccccc1)N1CCCc2c(O)nc(-c3ccccn3)nc21 [drawing 2653]
25 to 50%

Try this molecule next: O=C(NCCc1cccnc1)c1csc2c(O)nc(-c3ccccn3)nc12 [drawing 2689]
25 to 50%

Try this molecule next: O=C(c1csc2c(O)nc(-c3ccccn3)nc12)N1CCC(c2cccnc2)CC1 [drawing 2682]
25 to 50%

Try this molecule next: O=C(c1csc2c(O)nc(-c3ccccn3)nc12)N1CCC(N2CCCC2=O)CC1 [drawing 2679]
51 to 75%

Try this molecule next: O=C(c1csc2c(O)nc(-c3ccccn3)nc12)N(CCO)CCOCCO [drawing 2687]
51 to 75%

Try this molecule next: O=C(c1csc2c(O)nc(-c3ccccn3)nc12)N1CCNC(c2ccc(O)cc2)C1 (stereo not drawn) [drawing 2808]
51 to 75%

Try this molecule next: CC(C)COc1ccc(-c2csc3c(O)nc(-c4ccccn4)nc23)cn1 [drawing 2877]
51 to 75%

Try this molecule next: COCc1ccc(-c2csc3c(O)nc(-c4ccccn4)nc23)cc1F [drawing 2846]
51 to 75%

Try this molecule next: COc1ccccc1-c1csc2c(O)nc(-c3ccccn3)nc12 [drawing 2870]
25 to 50%

Try this molecule next: Oc1nc(-c2ccccn2)nc2c(-c3cccc(C(F)(F)F)c3)csc12 [drawing 2873]
25 to 50%

Try this molecule next: COc1ccc(F)cc1-c1csc2c(O)nc(-c3ccccn3)nc12 [drawing 2874]
25 to 50%

Try this molecule next: COc1cccc(CN2CCN(C(=O)c3csc4c(O)nc(-c5ccccn5)nc34)CC2)c1 [drawing 2763]
25 to 50%

====

- assaySystem: UniProtKB P63000
- measurementDescription: Rac inhibition assay (labeled GTP)
- Assay type: binding
- particulars: read-out: Rac-1 % Inh.
readoutType: inhibition at 20 µM

Which inhibition at 20 µM reading was recorded for the molecule Cc1sc2c(N)nc(-c3ccccn3)nc2c1-c1ccccc1 [drawing 3709] ?
25 to 50%

Try this molecule next: Oc1nc(-c2ccccn2)nc2c(CC3CCNCC3)csc12 [drawing 3805]
51 to 75%

Try this molecule next: COCCNc1nc(-c2nccn2C)nc2sc(-c3cccc(OC)c3)c(-c3ccccc3)c12 [drawing 3904]
1 to 25%

Try this molecule next: Cn1nnc2ccc(-c3csc4c(O)nc(-c5ccccn5)nc34)cc21 [drawing 3733]
76 to 100%

Try this molecule next: CC(C)COc1ccc(-c2c(-c3ccccc3)sc3c(O)nc(-c4nccn4C)nc23)cn1 [drawing 3905]
51 to 75%

Try this molecule next: Cn1ccnc1-c1nc(O)c2sc(-c3ccccc3)c(-c3cccc(C(F)(F)F)c3)c2n1 [drawing 3910]
1 to 25%

Try this molecule next: Nc1nc(-c2ccccn2)nc2scc(C(=O)O)c12 [drawing 3778]
51 to 75%

Try this molecule next: COCCNc1nc(-c2ccccn2)nc2sc(-c3ccccc3)c(-c3ccccn3)c12 [drawing 3938]
1 to 25%

Try this molecule next: Oc1nc(-c2ccccn2)nc2c(-c3ccc(OC(F)F)cc3F)csc12 [drawing 3748]
76 to 100%
